Parameter pIC50, tested on Endochitinase B1 (Aspergillus fumigatus), listed per item.
Numbered stars: 1 amine (or outer) side, 2 acyl side, 3 side chain; on linkers, the order of the positions; unused ones are H or OH. Square brackets hold non-standard residues; d marks the D form. Side chains are listed from the residue outwards. Peptide text beside a SMILES is read from it. NMeF = CN[C@@H](Cc1ccccc1)C(=O)O; CO = O=C([*:1])[*:2]
Kindly note that pIC50 refers to -log10 of the concentration in mol/L and answer with the value alone.

Example compounds with recorded pIC50:
compound | assay system | pIC50
CNC(=O)NC(N)=NCCC[C@H](NC(C)=O)C(=O)N(C)[C@@H](Cc1ccccc1)C(=O)N[C@@H](CC(=O)O)C(=O)O [Tripeptide] (Ac-Arg([CO-NHMe])-[NMeF]-Asp-OH) | Endochitinase B1 (Aspergillus fumigatus) | 5.29
[H]/N=C(\NC)NC(=O)NC [Argifin-Derived Fragments, 1] | Endochitinase B1 (Aspergillus fumigatus) | 3.30

Asked: Consider the compound shown here: "CNC(=O)NC(=N)NCCC[C@@H]1NC(=O)[C@@H](C)NC(=O)C[C@@H](C(=O)O)NC(=O)C[C@@H](C(=O)O)NC(=O)[C@H](Cc2ccccc2)N(C)C1=O" What is its recorded pIC50?
Given back: 7.57
